Record form. Attribute: MIC. Fill in for each entry.
# Tested on: S. aureus CF2A-L
# TEST_SUMMARY: MIC, microdilution in CAMHB 24 h
# Type: cell-based
# RUN_CONDITIONS: Staphylococcus aureus, CF2AL; CF2A-L; Human (CF lungs); read-out: MIC
Answers are plain numbers, in µg/mL.

Reference set (3 entries):
1) NC[C@H]1O[C@H](O[C@H]2[C@H](O)[C@@H](O[C@H]3O[C@H](CO)[C@@H](O)[C@H](N)[C@H]3O)[C@H](N)C[C@@H]2N)[C@H](N)C[C@@H]1O [Tobramycin, tobramycin] :: 1
2) O=C(O)c1cn(C2CC2)c2cc(N3CCNCC3)c(F)cc2c1=O [Ciprofloxacin, ciprofloxacin] :: 0.25
3) CC[C@H]1OC(=O)[C@H](C)[C@@H](O[C@H]2C[C@@](C)(OC)[C@@H](O)[C@H](C)O2)[C@H](C)[C@@H](O[C@@H]2O[C@H](C)C[C@H](N(C)C)[C@H]2O)[C@](C)(O)C[C@@H](C)C(=O)[C@H](C)[C@@H](O)[C@]1(C)O [Erythromycin, erythromycin] :: 0.5

// moving on: another record for MIC
Requested read-out: MIC. Entry: NC[C@H]1O[C@H](O[C@H]2[C@H](O)[C@@H](O[C@H]3O[C@H](CO)[C@@H](O)[C@H](N)[C@H]3O)[C@H](N)C[C@@H]2N)[C@H](O)[C@@H](O)[C@@H]1O [Kanamycin, kanamycin]
4
